- measured-on: T1, human plasma kallikrein (human, UniProt P03952 20-390; P03952 391-638)
- T1 construct: also called pKal; Human pKal
- experimental-details: ELISA, biotinylated pKal signal over streptavidin background
endpoint: ELISA (T/B)
Output spec: scalar in T/B, unitless text.

Below are worked cases with known answers.
* M142-H08 (Fab) (Fab, V domains shown, HC as printed runs into CH1) VH: EVQLLESGGGLVQPGGSLRLSCAASGFTFSAYSMIWVRQAPGKGLEWVSYIRPSGGRTTYADSVKGRFTISRDNSKNTLYLQMNSLRAEDTAVYYCARGGLLLWFRELKSNYFDYWGQGTLVTVSS VL: DIQMTQSPSSLSAFVGDRVTITCRASQPIDNYLNWYHQKPGKAPKLLIYAASRLQSGVPSRLSGSGFGTDFTLTISSLQPEDFGNYYCQQSYTVPYTFGGGTKVEIR | 29.9
* M145-D11 (Fab, V domains shown, HC as printed runs into CH1; also called 559A-M0145-D11) VH: EVQLLESGGGLVQPGGSLRLSCAASGFTFSHYRMSWVRQAPGKGLEWVSSIYPSGGRTVYADSVKGRFTISRDNSKNTLYLQMNSLRAEDTAVYYCAKDKFEWRLLFRGIGNDAFDIWGQGTMVTVSS VL: QSVLTQPPSVSVSPGQTASITCSGDKLGDKYTSWYQQRPGQSPVLVIYQDIKRPSGIPERFSGSNSGNTATLTISGTQAMDEADYYCQAWDSPNARVFGSGTKVTVL | 40
* M6-D09 (Fab, V domains shown, HC as printed runs into CH1; also called M06-D09; 559A-M0006-D09) VH: EVQLLESGGGLVQPGGSLRLSCAASGFTFSFYYMVWVRQAPGKGLEWVSVIYPSGGITVYADSVKGRFTISRDNSKNTLYLQMNSLRAEDTAVYYCARDKWAVMPPYYYYAMDVWGQGTTVTVSS VL: DIQMTQSPSSLSASVGDRVTITCRASQSIRNYLNWYQQKPGKAPNLLIYAASTLQSGVPARFSGSGSGTDFTLTISSLQPEDFATYYCQQLSGYPHTFGQGTKLEIK | 39.9

Fill in ELISA (T/B) for record M35-G04 (Fab, V domains shown, HC as printed runs into CH1; also called 559A-M0035-G04) VH: EVQLLESGGGLVQPGGSLRLSCAASGFTFSYYHMSWVRQAPGKGLEWVSVISPSGGSTKYADSVKGRFTISRDNSKNTLYLQMNSLRAEDTAVYYCARGGSSDYAWGSYRRPYYFDYWGQGTLVTVSS VL: DIQMTQSPATLSLSPGERATLSCRASQSVSSYLAWYQQKPGQAPRLLIYDASNRATGIPARFSGSGSGTDFTLTISSLEPEDFAVYYCQQRSNWPRGFTFGPGTKVDIK
11.1
